assay-system: furin, P09958;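 further: purified furin at 1:10 enzyme:substrate in 50 mM HEPES pH 7.5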
Sequence (P09958 whole entry): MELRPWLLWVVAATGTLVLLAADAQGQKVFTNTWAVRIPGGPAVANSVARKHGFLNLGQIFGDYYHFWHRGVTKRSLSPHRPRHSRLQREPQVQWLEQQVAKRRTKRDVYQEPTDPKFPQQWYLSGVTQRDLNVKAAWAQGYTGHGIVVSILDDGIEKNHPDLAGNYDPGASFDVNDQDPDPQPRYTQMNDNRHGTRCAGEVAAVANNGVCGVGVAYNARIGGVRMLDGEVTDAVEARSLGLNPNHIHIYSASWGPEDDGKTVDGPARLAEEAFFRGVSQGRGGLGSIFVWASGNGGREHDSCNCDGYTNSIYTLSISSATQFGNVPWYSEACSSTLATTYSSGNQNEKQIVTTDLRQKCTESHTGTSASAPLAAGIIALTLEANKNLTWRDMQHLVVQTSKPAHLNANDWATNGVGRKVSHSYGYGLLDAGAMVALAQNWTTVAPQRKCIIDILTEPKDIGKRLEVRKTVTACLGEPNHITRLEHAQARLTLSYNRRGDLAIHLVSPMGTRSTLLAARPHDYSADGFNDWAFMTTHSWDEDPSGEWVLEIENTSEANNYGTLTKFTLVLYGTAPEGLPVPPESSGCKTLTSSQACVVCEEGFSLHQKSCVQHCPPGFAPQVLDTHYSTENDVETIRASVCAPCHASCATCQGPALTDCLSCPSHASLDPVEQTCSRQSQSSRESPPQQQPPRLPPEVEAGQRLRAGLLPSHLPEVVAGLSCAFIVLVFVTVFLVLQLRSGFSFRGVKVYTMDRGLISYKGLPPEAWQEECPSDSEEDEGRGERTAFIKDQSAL
assay-info: furin cleavage Z-score vs untreated control; higher = more cleavage, active = 3.5 or more, inactive = 1 or less, 8 variable residues between constant flanks
applied-conditions: 15 min
The other results are listed elsewhere or left out. How many sequences the whole screen found active is unknown.
Possible outcomes: active, inactive

>>> df
          macromolecule_sequence  group_label
 0  CARTKRDVYQAGNASASA [FS-2825]       active
 1  CATHRRTKRFAGNASASA [FS-1291]       active
 2   CARAAICGKYAGNASASA [HC1629]     inactive
 3  CARTRRALSDAGNASASA [FS-3173]       active
 4  CARLKRAVSEAGNASASA [FS-2704]       active
 5  CARDSRSSGGAGNASASA [FS-2906]     inactive
 6  CARSKRRKYVAGNASASA [FS-3170]     inactive
 7  CARQCRSSQGAGNASASA [FS-2288]     inactive
 8   CADSGGARRSAGNASASA [FS-226]     inactive
 9  CARLKRHPEEAGNASASA [FS-2276]       active
10    CAVAVEPVVFAGNASASA [HC645]     inactive
11  CARSKRAQTQAGNASASA [FS-2807]       active
12   CAGHFRLKRTAGNASASA [FS-781]       active
13   CAATSRTKRFAGNASASA [FS-403]       active
14  CARTRRHLHDAGNASASA [FS-2615]       active
15  CARPKRYNSGAGNASASA [FS-2437]     inactive
16    CAQVLPCSFTAGNASASA [HC497]     inactive
17  CARGPRRASAAGNASASA [FS-1711]     inactive
18  CARLKKIKDDAGNASASA [FS-1740]     inactive
19  CARTRRLLDKAGNASASA [FS-2834]     inactive
20   CADEECSQHLAGNASASA [HC1671]     inactive
21  CARLKRIVFDAGNASASA [FS-2570]     inactive
22  CARWKRDSSGAGNASASA [FS-3176]       active
23    CAPISYANGSAGNASASA [HC396]     inactive
24   CAGNRRLKRFAGNASASA [FS-330]       active
